Values were extracted from ChEMBL document CHEMBL1144468.

I'd be grateful if you could share measured MIC for these entries.
# Test system: Staphylococcus aureus
# EXPERIMENTAL_DETAILS: Antibacterial activity against wild type Staphylococcus aureus RN4220
# Format: functional
Supply the numeric figure in µg/mL, leaving out any unit text.

# value of MIC, Staphylococcus aureus, item C[C@H]1COc2c(N3CCN(C)CC3)c(F)cc3c(=O)c(C(=O)O)cn1c23.C[C@H]1COc2c(N3CCN(C)CC3)c(F)cc3c(=O)c(C(=O)O)cn1c23.O = 0.5

# value of MIC, Staphylococcus aureus, item O=C(N[C@H](CO)[C@H](O)c1ccc([N+](=O)[O-])cc1)C(Cl)Cl = 4

* * *

# System: Staphylococcus aureus
# EXPERIMENTAL_DETAILS: Antibacterial activity against Staphylococcus aureus RN4220 with rplC G152D mutation
# Format: functional
Rule for this label: true means MIC is less than 0.5 µg/mL; false means MIC is at least 0.5 µg/mL.

Please let me know if C/C(=C\C(=O)OCCCCCCCCC(=O)O)C[C@@H]1OC[C@H](C[C@@H]2O[C@H]2[C@@H](C)[C@H](C)O)[C@@H](O)[C@H]1O shows MIC below 0.5 µg/mL. true

Please let me know if O=C(N[C@H](CO)[C@H](O)c1ccc([N+](=O)[O-])cc1)C(Cl)Cl shows MIC below 0.5 µg/mL. false

Please let me know if C=C[C@]1(C)C[C@@H](OC(=O)CSCCN(CC)CC)[C@]2(C)[C@H](C)CC[C@]3(CCC(=O)[C@H]32)[C@@H](C)[C@@H]1O shows MIC below 0.5 µg/mL. false

Please let me know if C=C[C@]1(C)C[C@@H](OC(=O)CS[C@@H]2C[C@H]3CC[C@@H](C2)N3C)[C@]2(C)[C@H](C)CC[C@]3(CCC(=O)[C@H]32)[C@@H](C)[C@@H]1O shows MIC below 0.5 µg/mL. true

Please let me know if CN(C)[C@@H]1C(O)=C(C(N)=O)C(=O)[C@@]2(O)C(O)=C3C(=O)c4c(O)cccc4[C@@](C)(O)[C@H]3C[C@@H]12 shows MIC below 0.5 µg/mL. true

* * *

# System: Staphylococcus aureus
# EXPERIMENTAL_DETAILS: Antibacterial activity against Staphylococcus aureus RN4220 with rplC G152D, D159Y, G155R and A150T mutation
# Type: functional
READOUT: MIC (µg/mL)
Supply the numeric figure in µg/mL, leaving out any unit text.

# value of MIC, Staphylococcus aureus, item C=C[C@]1(C)C[C@@H](OC(=O)CS[C@@H]2C[C@H]3CC[C@@H](C2)N3C)[C@]2(C)[C@H](C)CC[C@]3(CCC(=O)[C@H]32)[C@@H](C)[C@@H]1O [RETAPAMULIN] = 0.25

# value of MIC, Staphylococcus aureus, item C[C@H]1COc2c(N3CCN(C)CC3)c(F)cc3c(=O)c(C(=O)O)cn1c23.C[C@H]1COc2c(N3CCN(C)CC3)c(F)cc3c(=O)c(C(=O)O)cn1c23.O [LEVOFLOXACIN] = 0.125

# value of MIC, Staphylococcus aureus, item CN(C)[C@@H]1C(O)=C(C(N)=O)C(=O)[C@@]2(O)C(O)=C3C(=O)c4c(O)cccc4[C@@](C)(O)[C@H]3C[C@@H]12 [TETRACYCLINE] = 0.25
